Where these numbers come from: patent US12522597B2

# Test system: MDR1
# test details: MDCK-MDR1 permeability assay (BBB penetration potential)
# Type: in vitro ADME
# condition details: dog, MDCK-MDR1, pH 7.4, MDCK-MDR1: Papp B-A
# Method: Each determination is performed in duplicate. […] Analytical conditions are outlined below.

compound	target of assay	unit info	Papp B→A at 120 min, 5 μM
Cc1ncc(-c2ccc(-c3ccc(O[C@H]4C[C@@H]5CCC[C@@H](N5)[C@H]4F)nn3)c(O)c2)s1 (single isomer, unassigned)	MDR1	×10⁻⁶ cm/s	11.6
Cn1cnc(-c2ccc(-c3ccc(O[C@H]4C[C@]5(C)CCC[C@@](C)(N5)[C@H]4F)nn3)c(O)c2)cc1=O (single isomer, unassigned)	MDR1	×10⁻⁶ cm/s	28.7
Cn1ccc(-c2ccc(-c3ccc(O[C@@H]4C[C@H]5CCC[C@H](N5)[C@@H]4F)nn3)c(O)c2)cc1=O (single isomer, unassigned)	MDR1	×10⁻⁶ cm/s	63
Cn1cc(-c2cc(O)c(-c3ccc(O[C@H]4C[C@@H]5CCC[C@@H](N5)[C@H]4F)nn3)c(F)c2)cn1 (single isomer, unassigned)	MDR1	×10⁻⁶ cm/s	36.8
Oc1cc(-c2ccn3ccnc3c2)ccc1-c1ccc(O[C@@H]2C[C@H]3CCC[C@H](N3)[C@@H]2F)nn1 (single isomer, unassigned)	MDR1	×10⁻⁶ cm/s	23.8
Cn1ccc(-c2ccc(-c3ccc(O[C@H]4C[C@]5(C)CCC[C@@](C)(N5)[C@H]4F)nn3)c(O)c2)cc1=O (single isomer, unassigned)	MDR1	×10⁻⁶ cm/s	48.6

---

# Test system: mHTT protein
# test details: mHTT protein assay (2B7-MW1, Mesoscale Discovery)
# Type: cell-based, human
# condition details: GM04724 (CAG 70/20) Huntington's disease patient lymphoblast cells, 48 hours, 2B7-MW1 MSD; read-out: HTT Potency - Protein EC50 mHTT (average)
pEC50: −log10 of the molar value.
pEC50 for assorted molecules
value type: pEC50

molecule	meas value
Oc1cc(-c2cc[nH]n2)ccc1-c1ccc(O[C@H]2C[C@@H]3CCC[C@@H](N3)[C@H]2F)nn1 (single isomer, unassigned)	7.00 to 7.29
Cn1cc(-c2cc(O)c(-c3ccc(O[C@@H]4C[C@H]5CC[C@H](N5)[C@@H]4F)nn3)cc2F)cn1 (single isomer, unassigned)	7.30 to 7.80
Cc1cncc(-c2ccc(-c3ccc(O[C@@H]4C[C@H]5CCC[C@H](N5)[C@@H]4F)nn3)c(O)c2)n1 (single isomer, unassigned)	6.30 to 7.00
N#Cc1ccc(-c2ccc(O[C@H]3C[C@@H]4CC[C@@H](N4)[C@H]3F)nn2)c(O)c1 (single isomer, unassigned)	5.00 to 6.30

---

# Test system: MDR1-MDCK cell monolayers
# test details: MDCK-MDR1 permeability assay (BBB penetration potential)
# Assay type: in vitro ADME
# condition details: dog, MDCK-MDR1, 120 min, 5 μM, pH 7.4
Just so you know, the groups by MDCK-MDR1: % Recov A-B go like this: low bin = under 40%, mid bin = from 40% up to 80%, high bin = 80% and over

molecule	class label
Cn1cc(-c2cc(O)c(-c3ccc(O[C@@H]4C[C@H]5CCC[C@H](N5)[C@@H]4F)nn3)cc2Cl)cn1 (single isomer, unassigned)	low bin
Cc1nc(-c2ccc(-c3ccc(O[C@H]4C[C@@H]5CCC[C@@H](N5)[C@H]4F)nn3)c(O)c2)co1 (single isomer, unassigned)	mid bin
Cc1cc(-c2ccc(-c3ccc(O[C@H]4C[C@@H]5CCC[C@@H](N5)[C@H]4F)nn3)c(O)c2)cnn1 (single isomer, unassigned)	high bin
Cn1cnc(-c2ccc(-c3ccc(O[C@@H]4C[C@@]5(C)CCC[C@](C)(N5)[C@@H]4F)nn3)c(O)c2)cc1=O (single isomer, unassigned)	mid bin
Oc1cc(-c2cn[nH]c2)ccc1-c1ccc(O[C@H]2C[C@@H]3CC[C@@H](N3)[C@@H]2F)nn1 (single isomer, unassigned)	mid bin
Cn1ccc(=O)c2cc(O)c(-c3ccc(O[C@H]4C[C@]5(C)CCC[C@@](C)(N5)[C@H]4F)nn3)cc21 (stereo in doubt) [132-ENT2]	high bin
Cc1ccc(-c2ccc(-c3ccc(O[C@@H]4C[C@H]5CCC[C@H](N5)[C@@H]4F)nn3)c(O)c2)cn1 (single isomer, unassigned)	mid bin
Cn1cc(-c2cc(O)c(-c3ccc(O[C@@H]4C[C@H]5CC[C@H](N5)[C@@H]4F)nn3)cc2F)cn1 (single isomer, unassigned)	mid bin
Cc1ccc(-c2ccc(-c3ccc(O[C@H]4C[C@@H]5CCC[C@@H](N5)[C@H]4F)nn3)c(O)c2)s1 (single isomer, unassigned)	low bin

---

# System: MDR1
# test details: MDCK-MDR1 permeability assay (BBB penetration potential)
# Type: in vitro ADME
# condition details: dog, MDCK-MDR1, pH 7.4, MDCK-MDR1: Efflux
Field: class. Source value: efflux ratio at 120 min, 5 μM. Ranges: 1: < 5; 2: ≥ 5 and < 20; 3: ≥ 20

compound	class label
Cc1ncc(-c2ccc(-c3ccc(O[C@H]4C[C@@H]5CCC[C@@H](N5)[C@H]4F)nn3)c(O)c2)o1 (single isomer, unassigned) [93-ENT2]	1
Oc1cc(-c2nncs2)ccc1-c1ccc(O[C@H]2C[C@@H]3CC[C@@H](N3)[C@H]2F)nn1 (single isomer, unassigned) [141-ENT1]	2
Cn1ccc2cc(-c3ccc(O[C@H]4C[C@]5(C)CC[C@@](C)(N5)[C@H]4F)nn3)c(O)cc2c1=O (single isomer, unassigned) [127-ENT1]	2
Cn1ccc(-c2ccc(-c3ccc(O[C@@H]4C[C@H]5CCC[C@H](N5)[C@@H]4F)nn3)c(O)c2)cc1=O (single isomer, unassigned) [54-ENT1]	3
Oc1cc(-n2ncc3ccccc32)ccc1-c1ccc(O[C@@H]2C[C@H]3CC[C@H](N3)[C@@H]2F)nn1 (single isomer, unassigned) [114-ENT1]	1
Oc1cc(-c2ccc3nncn3c2)ccc1-c1ccc(O[C@H]2C[C@@H]3CCC[C@@H](N3)[C@H]2F)nn1 (single isomer, unassigned) [73-ENT2]	3
Cn1cnc(-c2ccc(-c3ccc(O[C@H]4C[C@]5(C)CCC[C@@](C)(N5)[C@H]4F)nn3)c(O)c2)cc1=O (single isomer, unassigned) [139-ENT2]	2
Cn1ccc2cc(O)c(-c3ccc(O[C@@H]4C[C@H]5CC[C@H](N5)[C@@H]4F)nn3)cc2c1=O (single isomer, unassigned) [129-ENT2]	2
Cn1cc(-c2ccc(-c3ccc(O[C@@H]4C[C@H]5COC[C@H](N5)[C@@H]4F)nn3)c(O)c2)cn1 (single isomer, unassigned) [124-ENT1]	1
Cn1ccc2cc(O)c(-c3ccc(O[C@H]4C[C@]5(C)CC[C@@](C)(N5)[C@H]4F)nn3)cc2c1=O (single isomer, unassigned) [130-ENT1]	2
Cn1ccc(=O)c2cc(O)c(-c3ccc(O[C@H]4C[C@]5(C)CCC[C@@](C)(N5)[C@H]4F)nn3)cc21 (single isomer, unassigned) [132-ENT1]	3

---

# Tested on: MDR1
# test details: MDCK-MDR1 permeability assay (BBB penetration potential)
# Type: in vitro ADME
# condition details: dog, MDCK-MDR1, pH 7.4, MDCK-MDR1: Efflux
# if measured efflux ratio at 120 min, 5 μM < 4: 1 (yes)  # else: 0 (no)

compound	class label
Cn1cc(-c2cc(O)c(-c3ccc(O[C@H]4C[C@@H]5CCC[C@@H](N5)[C@H]4F)nn3)cc2Cl)cn1 (single isomer, unassigned)	0 (no)
Cn1cc(-c2cc(O)c(-c3ccc(O[C@H]4C[C@@H]5CCC[C@@H](N5)[C@H]4F)nn3)cn2)cn1 (single isomer, unassigned)	0 (no)
Oc1cc2nccnc2cc1-c1ccc(O[C@@H]2C[C@H]3CCC[C@H](N3)[C@@H]2F)nn1 (single isomer, unassigned)	0 (no)
Cn1cc(-c2ccc(-c3ccc(O[C@H]4C[C@H]5CCC[C@H](N5)[C@H]4F)nn3)c(O)c2)cn1 (single isomer, unassigned)	0 (no)
Cn1cc(-c2cc(O)c(-c3ccc(O[C@H]4C[C@@H]5CC[C@@H](N5)[C@H]4F)nn3)cc2F)cn1 (single isomer, unassigned)	1 (yes)
Oc1cc(-c2cn[nH]c2)ccc1-c1ccc(O[C@H]2C[C@@H]3COC[C@@H](N3)[C@H]2F)nn1 (single isomer, unassigned)	0 (no)
Oc1cc(-c2cnn3ccccc23)ccc1-c1ccc(O[C@H]2C[C@@H]3CCC[C@@H](N3)[C@H]2F)nn1 (single isomer, unassigned)	1 (yes)
Oc1cc(-c2cn[nH]c2)ccc1-c1ccc(O[C@@H]2C[C@H]3CC(F)(F)[C@@H](C2)N3)nn1 (single isomer, unassigned)	1 (yes)
Cn1ccc2cc(-c3ccc(O[C@@H]4C[C@H]5CC[C@H](N5)[C@@H]4F)nn3)c(O)cc2c1=O (single isomer, unassigned)	0 (no)
Cn1cc(-c2ccc(-c3ccc(O[C@@H]4C[C@@H]5CCC[C@@H](N5)[C@H]4F)nn3)c(O)c2)cn1 (single isomer, unassigned)	1 (yes)
